B1: TPR t1 (parent)
chain: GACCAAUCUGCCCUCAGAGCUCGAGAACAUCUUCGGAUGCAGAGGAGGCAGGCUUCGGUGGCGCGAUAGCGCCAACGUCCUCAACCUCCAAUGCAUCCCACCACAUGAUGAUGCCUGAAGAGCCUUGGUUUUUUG

# Variants of: B1
# Experiment Notes: polymerase ribozyme fitness, log enrichment relative to wild type (log ratio); higher = more active; in vitro selection for triplet polymerase activity
If the reported polymerase ribozyme fitness (log ratio) equals or exceeds -4, assign condition met. If not, assign condition not met.

# Seq Text, Label
measured = [
    ("GACCAAUCUGCCCUCAGAGCUCGAGAACAUCUUCGGAUGCAGAGGAGGCAGGCUUCAGUGGCGCGAUAGCGCCAACGUCCACAACCUCCAAUGCAUCCCACCAUAUGAUGAUGCCUGAAGAGCCUUGGUUUUUUG", "condition met"),
    ("GACCAAUCUGCCCUCAGAGCUCGAGAACAUCUUCGGAUGCAGAGGAGGCAGGCUUCGUUGGCACGAUAGCGCCAACGUCCUAAACCUCCAAUGCAUUCCACCACAUGAUAAUGCCUGAAGAGCCUUGGUUUUUUG", "condition not met"),
    ("GACCAAUCUGCCCUCAGAGCUCGAGAACGUCUUCGGAUGCAGAGGAGGCAGGCUUGGGUGGCGCGAUAGCGCCAACGUCCUCAACCUCCACUGCAUCCCACCACAUGAUGAAGCCUGAAGGCCCUUGGUUUUUUG", "condition met"),
    ("GACCAAUCUGCCCUCAGAGCUCGAGAACAUCUUCGGAUGCAGAGGAGGCAGGCUUCGGUGGCGCGAUAGCGUCAACGUGCUCAACCUCCAAUGCAUCCCACCACAUGAUGAUACCUGAAGAGCCUUGGUUUUUUG", "condition not met"),
    ("GACCAAUCUGCCCGCAGAGCUCGAGAACAUCUUCGGAUGCAGAGGAGGCAGGCUUCGGUGGCGCGAUAGCGCCAACGUCCUCAACCUCCAAUGCAUCCCAGCACAUGAUGAUGCCUGAAGAGCCUUGGUUUUUUG", "condition met"),
    ("GACCAAUCUGCCCUCAGAGCUCGAGAACAUCUGCGGAUGCAGAGGAGGCAGGCUUCGGUGGCGCGAUAUCGCCAACGUCCUCAACCUCCAAUGCAUCCCACCACAUGAUGAUGCCUGAAGAGCCUUGGUUUUUUG", "condition met"),
    ("GUCCAAUCUGCCUUCAGAGCUCGAGAACAUCUUCGGAUGCAGAGGAGGCGGGCUUCGGUGGCACGAUAGCGCCAACGUCCUCAACCUCCAAUGCAUCCCACCACAUGAUGACGCCUGAAGAGCCUUGGUUUUUUG", "condition met"),
    ("GACCAAUCUGCCCUCAGAGCUCGAGAACAUCUUCGGAUGCAGAGGAGGCAUGCUUCGGUGGCGAGAUACCGCCAACGUCCUCAACCUCCAAUGCAUCCCACCACAUGAUGAUGCCUGAAGAGCCUUGGUUUUUUG", "condition met"),
    ("GACCAAUCUGCCCUCAGAGCUCGAGAACAUCUUCGGAUGCAGAGGAGGCUGGCUUCGGUGGCGCGAUAGCGCCAACGUCCUCAACCACCAAUGCAUCCCACCACAUGAUGAUGCCUGAAGAGCCUUGGUUUUUUG", "condition met"),
    ("GACCAAUCUGCCCUCAGAGCUCGAGAACAUCUUCGGAUGCAGAGGAGGCAGGCUUCGGUGGCGCGAUAGCGUCAACGUCCUCAACCUCCAAUGCAUCCCACCCCAUGAUGAUGCCUGAAGAGCCUUGGUUUUUUG", "condition not met"),
    ("GACCAAUCUGCCAUCAGAGCUCGAGAACAUCUUCGGAUGCAGAGGAGGCAGGCUUCGGUUGCGCGAUAUCGCCAACGUCCUCAACCUCCAAUGCAUCCCACCACAUGAUGAUGCCUGAAGAGCCUUGGUUUUUUG", "condition not met"),
    ("GACGAAUCUGCCCUCAGAGCUCGAGAACAUCUUCGGAUGCAGAGGAGGCAGGCUUCGGUGGCGCGAUAGCGCCAACGUCCUCAACCUCCAAUGCAUCCCACCACAUGAUGAUGUCUGAAGAGCCUUGGUUUUUUG", "condition met"),
    ("GACCAAUCUGCCCUCAGAGCUCGAGAACAUCUUCGGAUGCAGAGGAGGCAGGCUUCGGUCGCGCGAUAGCGCCAACGUCCUCAACCUUCAAUGCAUCCCACCACAUGAUGAUGCCUAAAGAGCCUUGGUUUUUUG", "condition met"),
    ("GACCAAUCUGCCCUCAGAGCUCGAGAACAUCUUCGGAUGCAGAGGAGGCAGGCUUCGGUGGCGCGAUAGCGCUAACGUCCUCAACCUCCAAUGCAUCCCACCAUAUGAUGAUGCCUGAAGAGCCUUGGUUUUUUG", "condition met"),
    ("GACCAAUCUGCCCUCAGAGCUCGAGAACAUCUUCGGAUGCAGAGGAGGCAGGCUUCGGUGGCGCGAUAGCGCCAACGUCCGCAACCUCCAAUGCAUCCCACCACAUGAUGAUGCCUGAAGAGCCUUGGUUAUUUG", "condition met"),
    ("GACCAAUCUGGCCUCAGAGCUCGAGAACAUCUUCGGAUGCAGAGGAGGCAGGCUUCGGUGGCGCGAUAGCGCAAACGUCCUUAACCUCCAAUGCAUCCCACCACAUGAUGAUGCCUGAAGAGCCUUGGUUUUUUG", "condition met"),
    ("GACCAAUCUGCCCUCAGUGCUCGAGAACAUCUUCGGAUGCAGAGGAGGGAGGCUUCGGUGGCGCGAUAGCGCCAACGUCCUCAACCUCCAGUGCAUCCCACCACAUGAUGAUGCCUGAAGAGCCUUGGUUUUUUG", "condition met"),
    ("GACCAAUCUGCCUUCAGAGCUCGAGAACAUCUUUGGAUGCAGAGGAGGCAGGCUUCGGUGGCGCGAUAGCGCCAACGUCCUCAACCUCCAAUGCAUCCCACCACAUGAUGAUGCCUGAAGAGCCUUGGUUUUUUG", "condition not met"),
    ("GGCCAAUCUGCCCUCAGAGGUCGAGAACAUCUUCGGAUGCAGAGGAGGCAGGCUUCGGUGGCGCGAUAGCGCCAACGUCCUCAACCUCCAAUGCAUCCCACCACAUGAUGAUACCUGAAGAGCCUUGGUUUUUUG", "condition met"),
    ("GACCAAUCUGCCUUCAGAGCUCGAGAACAUCUUCGGAUGCAGAGGAGGCAGGACUCGGUGGCGCGAUAGCGCCAACGUCCUCAACCUCCAAUGCAUCCCACCACAUGAUGAUGCCUGAACAGCCUUGGUUUUUUG", "condition met"),
    ("GACCAAUCUGGCCUCAGAGCUCGAGAACAUCUUCGGAUGCAGAGGAGCCAGGCUUCGGUGGCGCGGUAGCGCCAACGUCCUCAACCUCCAAUGCAUCCCACCACAUGAUAAUGCCUGAAGAGCCUUGGUUUUUUG", "condition met"),
]
